Assay: Plasma cholesterol and triglycerides in C57BL/6 mice (Olympus AU400e)
Format: in vivo, mouse
Details: Week 6, 50 mg/kg/week
Oligonucleotides are written 5' to 3', each unit as a sugar letter and its base; * is a phosphorothioate linkage, no mark a phosphodiester; rarer units and linkages stand in square brackets, end groups in braces. Plain capitals give the bases only. e = 2'-O-(2-methoxyethyl) (MOE); [5mC] = 5-methylcytosine; d = 2'-deoxy (DNA)
REPORTED_PROPERTY: LDL cholesterol levels (mg/dL)
Please state the figure in mg/dL; there is no need to write the unit.

Observe how each entry below is paired with its result.
# SEQUENCE_CHAIN, REPORTED_PROPERTY, OUTPUT_UNIT, TEST_VALUE
measured = [
    ("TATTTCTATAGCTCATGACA (antisense eT*eA*eT*eT*eT*d[5mC]*dT*dA*dT*dA*dG*d[5mC]*dT*d[5mC]*dA*eT*eG*eA*e[5mC]*eA) [ISIS 447144]", "LDL cholesterol levels", "mg/dL", 18),
    ("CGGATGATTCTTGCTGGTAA (antisense e[5mC]*eG*eG*eA*eT*dG*dA*dT*dT*d[5mC]*dT*dT*dG*d[5mC]*dT*eG*eG*eT*eA*eA) [ISIS 447114]", "LDL cholesterol levels", "mg/dL", 19),
    ("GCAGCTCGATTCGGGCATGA (antisense eG*e[5mC]*eA*eG*e[5mC]*dT*d[5mC]*dG*dA*dT*dT*d[5mC]*dG*dG*dG*e[5mC]*eA*eT*eG*eA) [ISIS 447118]", "LDL cholesterol levels", "mg/dL", 15),
]

Please look at the following sequence next.
Please report the recorded LDL cholesterol levels for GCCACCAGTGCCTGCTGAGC (antisense eG*e[5mC]*e[5mC]*eA*e[5mC]*d[5mC]*dA*dG*dT*dG*d[5mC]*d[5mC]*dT*dG*d[5mC]*eT*eG*eA*eG*e[5mC]) [ISIS 447143] .
17
